The reported measurements were obtained from ChEMBL document CHEMBL1149284.

test: Inhibition of HIV reverse transcriptase; design: species or system Human immunodeficiency virus
pIC50: −log10 of the molar value.

{"compound": "CCCC1(CC(=O)O)OCCc2c1[nH]c1c(Cl)ccc(CC)c21 (stereo unspecified)", "pIC50": "< 4.00"}

###

assay: Inhibition of HCV 1a NS5B polymerase; design: species or system Hepatitis C virus subtype 1a
pIC50: −log10 of the molar value.

{"entry.smiles": "CCC[C@]1(CC(=O)O)OCCc2c1[nH]c1c(C)ccc(C#N)c21", "pIC50": 6.52}

###

test: Inhibition of HCV NS5B polymerase; design: species or system Hepacivirus hominis
pIC50: −log10 of the molar value.
Given measured pIC50, output yes (1) if it is greater than or equal to 6 and no (0) if not.

{"molecule": "CCC[C@]1(CC(=O)O)OCCc2c1[nH]c1c(C)cc(F)c(C#N)c21", "assigned.category": "yes (1)"}
{"molecule": "CCC[C@@]1(CC(=O)O)OCCc2c1[nH]c1c(Cl)ccc(CC)c21", "assigned.category": "no (0)"}
{"molecule": "CCCC1(CC(=O)O)OCCc2c1[nH]c1c(Cl)ccc(CC)c21 (stereo not given)", "assigned.category": "no (0)"}
{"molecule": "CCC[C@@]1(CC(=O)O)OCCc2c1[nH]c1c(F)ccc(C#N)c21", "assigned.category": "no (0)"}
{"molecule": "CCCC1(CC(=O)O)OCCc2c1[nH]c1cccc(Cl)c21 (stereo not given)", "assigned.category": "no (0)"}
{"molecule": "CCc1ccc(Cl)c2[nH]c3c(c12)CCOC3(CC)CC(=O)O (stereo not given)", "assigned.category": "no (0)"}
{"molecule": "CCCC1(CC(=O)O)OCCc2c1[nH]c1c(C)ccc(C#N)c21 (stereo not given)", "assigned.category": "yes (1)"}
{"molecule": "CCC[C@]1(CC(=O)O)OCCc2c1[nH]c1c(Cl)ccc(CC)c21", "assigned.category": "no (0)"}
{"molecule": "CCCC1(CC(=O)O)OCCc2c1[nH]c1c(C)ccc(C#N)c21 (single isomer, unassigned)", "assigned.category": "no (0)"}
